tested on: Key Grass and Sedge Weeds as well as Grass Crops; experiment: Post-emergent Test II herbicidal activity (Table 6); type: in vivo; details: post-emergence, 336 h, DIGSA: crabgrass (Digitaria sanguinalis), application rate 140 g ai/ha, read-out: Visual Growth Reduction (%) 14 Days After Application, DIGSA
readout name: pest or weed control at 140 g/ha

Worked examples follow.
molecule | pest or weed control at 140 g/ha
COC(=O)c1nc(-c2cc(F)c(C#N)cc2F)cc(N)c1Cl [Compound 202] | 60 to 74%
COc1c(N)nc(-c2ccc(Br)c(F)c2F)nc1C(=O)O [Compound 8] | 85 to 94%
Nc1cc(-c2ccc(I)c(F)c2F)nc(C(=O)O)c1Cl [Compound 38] | 75 to 84%
Nc1cc(-c2cc(F)c(I)cc2F)nc(C(=O)O)c1Cl [Compound 131] | 75 to 84%

Next molecule, please.
Problem: Tell me its pest or weed control at 140 g/ha given Nc1c(F)c(-c2ccc(OC(F)F)c(F)c2)nc(C(=O)O)c1Cl [Compound 92] as the entry.
Solution: 60 to 74%
